Reference source: PubChem BioAssay AID1963973

Test system: 883617-216-R-J1-PDC tumor spheroids, viability
Assay Notes: Anticancer human tumor 883617-216-R-J1-PDC patient-derived bladder carcinoma cell line growth inhibition [PI3K]
Experimental Context: second compound 0.316 µM; first compound 3.16 µM; active compounds read low; spheroids with HUVEC and MSC
Excerpt: Combinatorial screen of targeted agents with the PI3K inhibitors inavolisib, alpelisib, duvelisib, and copanlisib in multi-cell type tumor spheroids A high-throughput screen of multi-cell type tumor spheroids was designed to identify active combinations of targeted small molecules and PI3K pathway inhibitors. […] Compounds. […] If the clinical Cmax for an agent had not been determined, the highest concentration tested was 10 microM. […]
// reported viability, T/C per item
Use % as the unit, but write only the number.

1. CC(Cn1ccc(-c2ccc(C#N)c(Cl)c2)n1)NC(=O)c1cc(C(C)O)[nH]n1 (stereo not given) + CC(Nc1ccc2c(c1)OCCn1cc(N3C(=O)OCC3C(F)F)nc1-2)C(N)=O | 26.8
2. C[C@@H](NC(=O)c1ncnc(N)c1Cl)c1ncc(C(=O)Nc2cc(C(F)(F)F)c(Cl)cn2)s1 + Cc1nc(NC(=O)N2CCCC2C(N)=O)sc1-c1ccnc(C(C)(C)C(F)(F)F)c1 | 48.8
3. CNC(=O)c1ccc(N2C(=S)N(c3ccc(C#N)c(C(F)(F)F)c3)C(=O)C2(C)C)cc1F + COc1c(OCCCN2CCOCC2)ccc2c3n(c(=NC(=O)c4cnc(N)nc4)nc12)CCN3 | 5.23
4. CC1(C)CCC(Nc2ncc(C(F)(F)F)c(-c3c[nH]c4c(P(C)(C)=O)c(C#N)ccc34)n2)CN1 (stereo not given) + CC(Nc1ccc2c(c1)OCCn1cc(N3C(=O)OCC3C(F)F)nc1-2)C(N)=O | 3
5. Cn1ncc(Cl)c1-c1cc(C(=O)NC(CN)Cc2cccc(F)c2)sc1Cl (stereo not given) + COc1c(OCCCN2CCOCC2)ccc2c3n(c(=NC(=O)c4cnc(N)nc4)nc12)CCN3 | 2.33

Give viability, T/C for the following molecule: C[C@@H](NC(=O)c1ncnc(N)c1Cl)c1ncc(C(=O)Nc2cc(C(F)(F)F)c(Cl)cn2)s1 + CC(Nc1ncnc2nc[nH]c12)c1cc2cccc(Cl)c2c(=O)n1-c1ccccc1
78.4

Give viability, T/C for the following molecule: CC(C)NCC(C(=O)N1CCN(c2ncnc3c2C(C)CC3O)CC1)c1ccc(Cl)cc1 (stereo not given) + Cc1nc(NC(=O)N2CCCC2C(N)=O)sc1-c1ccnc(C(C)(C)C(F)(F)F)c1
10.9

---

// reported viability, T/C per item
Tested on: 883617-216-R-J1-PDC tumor spheroids, viability
Assay Notes: Anticancer human tumor 883617-216-R-J1-PDC cell line growth inhibition [PI3K];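 also: spheroids exposed to agents for 7 days before the viability read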
Experimental Context: compound 0.0316 µM; active compounds read low; spheroids with HUVEC and MSC

// worked examples, viability, T/C included
1. CC(Nc1ncnc2nc[nH]c12)c1cc2cccc(Cl)c2c(=O)n1-c1ccccc1 (configuration not stated) | 98.3% [middle of 8 runs]
2. CC1(C)CCC(Nc2ncc(C(F)(F)F)c(-c3c[nH]c4c(P(C)(C)=O)c(C#N)ccc34)n2)CN1 (configuration not stated) | 38% [middle of 4 runs]
3. CCN1CCN(Cc2ccc(Nc3ncc(F)c(-c4cc(F)c5nc(C)n(C(C)C)c5c4)n3)nc2)CC1 | 75.5% [middle of 4 runs]
4. C=CC(=O)N1CCN(c2nc(=O)n(-c3c(C)ccnc3C(C)C)c3nc(-c4c(O)cccc4F)c(F)cc23)C(C)C1 (configuration not stated) | 61.8% [middle of 4 runs]

Give viability, T/C for the following compound: `CCCS(=O)(=O)Nc1ccc(F)c(C(=O)c2c[nH]c3ncc(-c4ccc(Cl)cc4)cc23)c1F`
99.5% [middle of 4 runs]

Give viability, T/C for the following compound: CC(C)NCC(C(=O)N1CCN(c2ncnc3c2C(C)CC3O)CC1)c1ccc(Cl)cc1 (configuration not stated)
93.7% [middle of 4 runs]

Give viability, T/C for the following compound: `COc1c(OCCCN2CCOCC2)ccc2c3n(c(=NC(=O)c4cnc(N)nc4)nc12)CCN3`
40% [middle of 8 runs]

Give viability, T/C for the following compound: CC(Nc1ccc2c(c1)OCCn1cc(N3C(=O)OCC3C(F)F)nc1-2)C(N)=O (configuration not stated)
71.5% [middle of 8 runs]

Give viability, T/C for the following compound: `Cn1ncnc1[C@H]1c2n[nH]c(=O)c3cc(F)cc(c23)N[C@@H]1c1ccc(F)cc1`
75.7% [middle of 4 runs]

Give viability, T/C for the following compound: `CC1(C)CCC(CN2CCN(c3ccc(C(=O)NS(=O)(=O)c4ccc(NCC5CCOCC5)c([N+](=O)[O-])c4)c(Oc4cnc5[nH]ccc5c4)c3)CC2)=C(c2ccc(Cl)cc2)C1`
105% [middle of 4 runs]

Give viability, T/C for the following compound: `CC(=O)c1c(C)c2cnc(Nc3ccc(N4CCNCC4)cn3)nc2n(C2CCCC2)c1=O`
71.2% [middle of 4 runs]

Give viability, T/C for the following compound: Cc1nc(NC(=O)N2CCCC2C(N)=O)sc1-c1ccnc(C(C)(C)C(F)(F)F)c1 (configuration not stated)
92.1% [middle of 8 runs]

Give viability, T/C for the following compound: `CC(C)n1nc(-c2ccc3oc(N)nc3c2)c2c(N)ncnc21`
47.2% [middle of 4 runs]

Give viability, T/C for the following compound: C#Cc1c(F)ccc2cc(O)cc(-c3ncc4c(N5CC6CCC(C5)N6)nc(OCC56CCCN5CC(F)C6)nc4c3F)c12 (configuration not stated)
99.5% [middle of 4 runs]

Give viability, T/C for the following compound: Cn1ncc(Cl)c1-c1cc(C(=O)NC(CN)Cc2cccc(F)c2)sc1Cl (configuration not stated)
98.2% [middle of 4 runs]

Give viability, T/C for the following compound: `CNC(=O)c1ccc(N2C(=S)N(c3ccc(C#N)c(C(F)(F)F)c3)C(=O)C2(C)C)cc1F`
94.7% [middle of 4 runs]

Give viability, T/C for the following compound: Cn1nccc1Nc1nccc(-c2ccn(C(CO)c3ccc(Cl)c(F)c3)c(=O)c2)n1 (configuration not stated)
93.7% [middle of 4 runs]
